Values were extracted from ChEMBL document CHEMBL3525909.

experiment: Oral bioavailability in beagle dog at 3 mg/kg; assay type: ADME, organism-based, Canis lupus familiaris; settings: in vivo
experimental-readout: bioavailability (%)
Please respond with the number in % and leave the unit unwritten.

**Q:** Reported bioavailability for `CC(C)(N)C(=O)N[C@H](CCCc1ccccc1)C(=O)Nc1cn([C@@](C)(C(=O)N2CCCC2)c2ccc(F)cc2)cn1` : what is it?
**A:** 33

###

assay: Plasma clearance in beagle dog at 1 mg/kg, iv; type: ADME, organism-based, Canis lupus familiaris; set-up: dose 1 mg/kg, route intravenous
experimental-readout: clearance (mL/min/kg)
A number alone suffices; assume mL/min/kg.

**Q:** Give its clearance value. Item: `CC(C)(N)C(=O)N[C@H](CCCc1ccccc1)C(=O)Nc1cn([C@@](C)(C(=O)N2CCCC2)c2ccc(F)cc2)cn1`
**A:** 33

###

assay: Plasma clearance in Fischer 344 rat at 3 mg/kg, iv; format: ADME, organism-based; parameters: dose 3 mg/kg, route intravenous
experimental-readout: clearance (mL/min/kg)
Please respond with the number in mL/min/kg and leave the unit unwritten.

**Q:** What measured clearance goes with `CC(C)(N)C(=O)N[C@H](CCCc1ccccc1)C(=O)Nc1cn([C@@](C)(C(=O)N2CCCC2)c2ccc(F)cc2)cn1` ?
**A:** 75

###

test: Oral bioavailability in Fischer 344 rat at 30 mg/kg; type: ADME, organism-based; conditions: in vivo
experimental-readout: bioavailability
# do not omit the unit; it follows the number

**Q:** Please give the measured bioavailability for this compound: `CC(C)(N)C(=O)N[C@H](CCCc1ccccc1)C(=O)Nc1cn([C@@](C)(C(=O)N2CCCC2)c2ccc(F)cc2)cn1`
**A:** 74%

###

assay: Terminal half life in beagle dog at 1 mg/kg, iv; format: ADME, organism-based, Canis lupus familiaris; parameters: dose 1 mg/kg, route intravenous; settings: in vivo, read-out: beta t1/2 (converted)
experimental-readout: half-life (h)
The reply should contain only the number, in h.

**Q:** Dear colleague, I am looking for the recorded half-life of the following molecule: `CC(C)(N)C(=O)N[C@H](CCCc1ccccc1)C(=O)Nc1cn([C@@](C)(C(=O)N2CCCC2)c2ccc(F)cc2)cn1`
**A:** 5
